# assay-method-text: solvent given as SMILES
# condition-parameters: in CC(C)OCCO
readout-kind: solvation free energy, 298 K (kcal/mol)
The answer is to be given in kcal/mol; state only the numeric part.

The compound `NC(=O)c1ccccc1O` showed solvation free energy, 298 K equal to -12.8

The compound `c1ccc2cc3ccccc3cc2c1` showed solvation free energy, 298 K equal to -10.8

The compound `COc1ccc(C(=O)O)cc1` showed solvation free energy, 298 K equal to -12.3

The compound `c1ccc(-c2ccccc2)cc1` showed solvation free energy, 298 K equal to -8.73

---

# assay-method-text: solvent given as SMILES
# condition-parameters: in CC(C)CC(C)(C)C
Catalogue of solvation free energy, 298 K readings, one per entry.
The answer is to be given in kcal/mol; state only the numeric part.

Cc1ccccc1O :: -5.68
C#CCC :: -2.36
Cc1ccncc1 :: -4.95
CCCCl :: -3.2
Cc1cccc(O)c1C :: -6.27

The molecule `CC(C)CCC(C)C` showed solvation free energy, 298 K equal to -4.84

The molecule `CCc1ccc2c(c1)C(=O)c1ccccc1C2=O` showed solvation free energy, 298 K equal to -11.6

The molecule `CCCCCCCCCCCCO` showed solvation free energy, 298 K equal to -8.62

The molecule `Oc1ccccc1F` showed solvation free energy, 298 K equal to -4.58

The molecule `C=CC` showed solvation free energy, 298 K equal to -1.61

The molecule `C[N+](=O)[O-]` showed solvation free energy, 298 K equal to -2.74

The molecule CCC(C)O (stereo not given) showed solvation free energy, 298 K equal to -3.42

Origin of the recorded values: the CombiSolv-Exp solvation set (Vermeire and Green 2021)
